Target: Beta-lactamase (Escherichia coli K-12)
Experiment: Apparent inhibitory constant against beta-lactamase AmpC from Escherichia coli
MEASUREMENT KIND: Ki (µM)
Provide only the numeric value, understood in µM.

[Q] Answer with the recorded Ki for the compound listed here: `NS(=O)(=O)c1ccc(NS(=O)(=O)c2ccsc2C(=O)O)cc1`
[A] 93

----------
Lab note: log10 of Kd readings collected with Endolysin (Enterobacteria phage T4, UniProt P00720, L99A) for the following molecules.
On a log10 scale: recorded Kd, unit µM.

1) CCc1ccccc1C: 2.70
2) C1=Cc2ccccc2C1: 2.29
3) CCCc1ccccc1: 1.26
4) c1ccc2occc2c1: 2.05
5) CCc1ccc(C)cc1: 2.08
6) CCc1cccc(C)c1: 2.30
7) c1ccc2sccc2c1: 1.87

Consider the additional molecule presented here.
[Q] Give the reported value of log10 of Kd for this record: `Cc1cccc(C)c1`
[A] 2.56

----------
Biological target: Beta-lactamase (Escherichia coli K-12, UniProt P00811)
Sequence (P00811 whole entry): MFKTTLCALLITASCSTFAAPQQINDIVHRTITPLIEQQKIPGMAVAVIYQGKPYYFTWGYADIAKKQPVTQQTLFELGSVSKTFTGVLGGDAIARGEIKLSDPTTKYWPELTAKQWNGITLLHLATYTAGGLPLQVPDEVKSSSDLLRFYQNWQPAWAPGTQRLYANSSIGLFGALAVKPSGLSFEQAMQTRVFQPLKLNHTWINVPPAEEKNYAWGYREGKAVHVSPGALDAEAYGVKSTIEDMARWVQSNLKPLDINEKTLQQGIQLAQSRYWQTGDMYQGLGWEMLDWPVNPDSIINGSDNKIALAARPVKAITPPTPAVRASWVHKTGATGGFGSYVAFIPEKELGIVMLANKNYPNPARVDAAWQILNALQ
Experiment: Inhibitory constant against beta-lactamase AmpC from Escherichia coli
MEASUREMENT KIND: pKi
// field semantics: pKi = negative decimal log of concentration (mol/L)

[Q] Fetch value of pKi on Beta-lactamase (Escherichia coli K-12, UniProt P00811) for `O=C(O)c1sccc1S(=O)(=O)Nc1ccc(Cl)cc1` .
[A] 4.59
